- Test system: XF498
- experiment.notes: NCI tumour cell line growth inhibition, 48 h
Active and inactive are the calls of the source. Rule as the data show it: active = GI50 up to about 1.1 µM and inactive = higher.
Mark one answer only. Choices: active, inactive

Worked set:
O=C1Cc2ccccc2N1/N=C\c1ccc(O)cc1: inactive
CN(C)CC1CCCC1=O (stereo not given): active
N#CC1(c2nc3ccccc3o2)C(=O)C(=O)N(C2C3CC4CC(C3)CC2C4)C(=O)C1=O (stereo not given): inactive
CCOC(=O)c1oc2c(OC)ccc3c2c1CCC3: inactive
CCOc1ccc(NC(=O)C(=O)CC(=O)c2c(C)[n+]([O-])c3ccccc3[n+]2[O-])cc1: inactive
COc1c2c(nc3ccccc13)-c1cc3c(c(=O)n1C2)COC(=O)C3(O)CC(=O)N1CCOCC1 (stereo not given): inactive
O=C(N[C@@H]1C=CCC[C@@H]1c1ccccc1)OCc1ccccc1: inactive
CCCCc1c2cnccc2c(CCCC)c2c1[nH]c1ccccc12: inactive
NCCNC(=O)c1cccc2cc3ccccc3nc12: inactive
COc1ccc(C2C3C(=O)C=CC(=O)C3[C@@H]2C)cc1OC (stereo not given in full): inactive

I'd appreciate the recorded outcome for O=C1c2ccccc2C(=O)c2c1ccc(O)c2O from this test.
inactive

Ok, now O/N=C\C(=N/O)Nc1ccc(Cc2ccc(NC(/C=N\O)=N/O)cc2)cc1
inactive

Ok, now Cc1cc(NS(=O)(=O)c2ccc(Nc3c4ccccc4nc4c(C(=O)N5CCN(CCOS(C)(=O)=O)CC5)cccc34)cc2)no1
inactive

Ok, now Cc1ccc(N2Cc3c(ccc4ccccc34)OP2(=O)Oc2ccc(Cl)c(C)c2)cc1 (stereo not given)
inactive

Ok, now CCOC(=O)CC1COc2ccc3c(c21)OCO3 (stereo not given)
inactive

Ok, now CCOC(=O)/C(=C/c1ccc[nH]1)P(=O)(OCC)OCC
inactive

Ok, now CCOC(=O)c1cccnc1C(OC(C)=O)OC(C)=O
inactive
